assay: Human HepG2 cell viability assay in 384 well format; format: toxicity, cell-based; parameters: dose 125 nL, time 70.5 hour; concentration not given beside the values; conditions: HepG2 cells, read-out: Inhibition
recorded metric: cytotoxicity at 70.5 h (%)
Numbers only, in %.

| molecule | unit name | cytotoxicity at 70.5 h |
| --- | --- | --- |
| COc1cccc(C2SCC(=O)Nc3ccsc32)c1 (stereo unspecified) | % | 0.777 |

For each entry beneath this line, provide reported cytotoxicity at 70.5 h.
1. CN1CCC(Nc2cc(Cl)ccc2OCC(F)(F)F)C1=O (stereo unspecified)
2. CCN(CC)S(=O)(=O)c1ccc(CNC(=O)c2cc(C)on2)cc1
3. CC(C)c1ocnc1C(=O)N1CCCC(c2ccn[nH]2)C1 (stereo unspecified)

[-1.29, -2.55, -3.87]

Data origin: ChEMBL document CHEMBL3507680
